Reported AC50 values, 5-hydroxytryptamine receptor 1A (Homo sapiens).

Problem: Param item = `C[N+]1(CCCCC[N+]2(C)CCCC2)CCCC1` ; retrieve measured AC50.
Solution: > 30 µM

Problem: Param item = Cc1oc(=O)oc1CN1CCN(c2cc3c(cc2F)c(=O)c(C(=O)O)c2n3C(C)S2)CC1 (stereo not given) ; retrieve measured AC50.
Solution: > 30 µM

Problem: Param item = `Nc1ccc2cc3ccc(N)cc3nc2c1` ; retrieve measured AC50.
Solution: 17.2 µM

Problem: Param item = O=C(OCC(O)CO)c1ccccc1Nc1ccnc2cc(Cl)ccc12 (stereo not given) ; retrieve measured AC50.
Solution: > 30 µM

Problem: Param item = Clc1ccc(C(OCCN2CCCCC2)c2ccccc2)cc1 (stereo not given) ; retrieve measured AC50.
Solution: 20.1 µM

Problem: Param item = `NC(=O)C[C@H](N)C(=O)O` ; retrieve measured AC50.
Solution: > 30 µM

Problem: Param item = `CCN(CC)CCc1nc(-c2ccccc2)no1` ; retrieve measured AC50.
Solution: 15.5 µM

Problem: Param item = `OC(CCN1CCCCC1)(c1ccccc1)c1ccccc1` ; retrieve measured AC50.
Solution: 29.8 µM

Problem: Param item = O=[N+]([O-])O[C@@H]1CO[C@H]2[C@@H]1OC[C@@H]2O [ISOSORBIDE MONONITRATE] ; retrieve measured AC50.
Solution: > 30 µM

Problem: Param item = `CC(=O)Oc1c(C)c(C)c2c(c1C)CC[C@@](C)(CCC[C@H](C)CCC[C@H](C)CCCC(C)C)O2` ; retrieve measured AC50.
Solution: > 30 µM

Problem: Param item = `Cc1cn([C@H]2C[C@H](N=[N+]=[N-])[C@@H](CO)O2)c(=O)[nH]c1=O` ; retrieve measured AC50.
Solution: > 30 µM

Problem: Param item = N[C@@H](C(=O)N[C@@H]1C(=O)N2C(C(=O)O)=C(Cl)CC[C@H]12)c1ccccc1 [LORACARBEF ANHYDROUS] ; retrieve measured AC50.
Solution: > 30 µM

Problem: Param item = CCOc1ccccc1OCC1CNCCO1 (stereo not given) ; retrieve measured AC50.
Solution: 9.72 µM

Problem: Param item = `CC1=C(/C=C/C(C)=C/C=C/C(C)=C/C=C/C=C(C)/C=C/C=C(C)/C=C/C2=C(C)CCCC2(C)C)C(C)(C)CCC1` ; retrieve measured AC50.
Solution: > 30 µM

Problem: Param item = N[C@H]1C(O)O[C@H](CO)[C@@H](O)[C@@H]1O (stereo not given in full) ; retrieve measured AC50.
Solution: > 30 µM
